- measured.target: Mutant CD33-GFP M5 (AEAD), quadruple mutant, on 293FT cells (UniProt P20138)
- Sequence (P20138 other isoform, or with tags, fused parts or gaps mutant): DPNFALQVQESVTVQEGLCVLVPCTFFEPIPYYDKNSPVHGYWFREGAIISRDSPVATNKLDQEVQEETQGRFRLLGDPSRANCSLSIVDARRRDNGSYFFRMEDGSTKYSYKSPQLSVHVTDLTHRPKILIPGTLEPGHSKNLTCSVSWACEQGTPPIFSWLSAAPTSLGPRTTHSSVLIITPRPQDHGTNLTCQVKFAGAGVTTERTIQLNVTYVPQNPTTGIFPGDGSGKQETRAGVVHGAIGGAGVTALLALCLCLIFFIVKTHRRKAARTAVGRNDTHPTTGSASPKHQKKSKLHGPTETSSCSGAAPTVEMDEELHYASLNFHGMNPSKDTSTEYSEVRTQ
- test.protocol: FACS, mutant CD33-GFP on 293FT cells
We begin with a simple list: items and their reported FACS binding data.
assay.readout: FACS binding data

sdCD33_7 (VHH, sdAb from a naive llama phage library; also called 420; sdAb420) VHH: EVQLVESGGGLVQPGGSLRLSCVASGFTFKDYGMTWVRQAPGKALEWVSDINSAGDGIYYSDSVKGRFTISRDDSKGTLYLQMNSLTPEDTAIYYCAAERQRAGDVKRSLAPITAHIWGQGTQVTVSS	0.15
sdCD33_4 (VHH) VHH: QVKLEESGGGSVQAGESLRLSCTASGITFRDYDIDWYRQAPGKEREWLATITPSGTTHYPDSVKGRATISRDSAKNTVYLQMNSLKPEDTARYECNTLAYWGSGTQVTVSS	0.16
sdCD33_10 (VHH) VHH: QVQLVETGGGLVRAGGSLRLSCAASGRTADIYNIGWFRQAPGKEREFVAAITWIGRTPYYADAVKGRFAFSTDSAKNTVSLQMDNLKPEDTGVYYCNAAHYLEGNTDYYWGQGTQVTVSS	0.12
sdCD33_11 (VHH, sdAb from a naive llama phage library; also called 430; sdAb430) VHH: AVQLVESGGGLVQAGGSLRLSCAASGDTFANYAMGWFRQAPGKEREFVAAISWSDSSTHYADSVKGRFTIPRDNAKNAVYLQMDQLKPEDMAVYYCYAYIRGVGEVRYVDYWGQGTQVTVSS	0.79
